Origin of measurements: patent US20240352134A1

Documented Tango IC50 across a set of binders
- TGT: human CCR8 (human, UniProt P51685 1-355)
- Sequence (P51685 whole entry): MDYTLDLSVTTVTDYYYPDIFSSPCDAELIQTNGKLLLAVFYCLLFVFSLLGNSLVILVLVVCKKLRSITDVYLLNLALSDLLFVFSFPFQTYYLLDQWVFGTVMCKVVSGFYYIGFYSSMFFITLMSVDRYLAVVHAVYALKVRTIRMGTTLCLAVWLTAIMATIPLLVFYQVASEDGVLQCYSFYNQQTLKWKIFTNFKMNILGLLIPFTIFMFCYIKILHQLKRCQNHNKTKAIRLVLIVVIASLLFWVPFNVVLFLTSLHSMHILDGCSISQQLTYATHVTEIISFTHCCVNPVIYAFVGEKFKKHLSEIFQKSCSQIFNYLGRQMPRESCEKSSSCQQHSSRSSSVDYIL
- ASSAY_EXPLANATION: cell-based or functional assay
VALUE_TYPE: Tango IC50 (nM)

>>> recorded_number("1G17 (antibody, V domains shown, Mouse hybridoma monoclonal antibody) VH: QVQLQQSGAELVRPGASVTLSCKASGYTFADYEMHWVKQTPVLGLEWIGAIDPETGRTAYNQKFKFKATLTADRSSSTAYMELRSLTSEDSAVYYCTRRAYWGGWGQGTTLTVSS VL: DVVMTQTPLSLPVSLGDQASISCRSSQSLVHSSGNTYLHWYLQKPGQSPKLLIYKVSNRFSGVPDRFSGSGSGTDFTLKISRVEAEDLGVYFCSQSTHVPYTFGGGTKLEIK")
1.82
>>> recorded_number("103G4 (antibody, V domains shown, Mouse hybridoma monoclonal antibody) VH: EVQLVESGGGLVRPKGSLKLSCAASGFSFNPYALNWVRQAPGKGLEWVARIRSKSNNYATYYADSVKDRFTISRDDSENILYLQMNNLKTEDTAMYYCVKDYYGTRPSIGMDYWGQGTSVTVSS VL: DIVMTQAAPSVPVTPGESVSISCRSSRSLLHSNGNTYLYWFLQRPGQSPHLLIYRMSNLASGVPDRFSGSGSGTAFTLRISRVEAEDVGVYYCMQHLEYPFTFGAGTKLELK")
0.83
>>> recorded_number("4G19 (antibody, V domains shown, Mouse hybridoma monoclonal antibody) VH: EVQFVESGGGLVQPKGSLKLSCAASGFSFNTYAMNWVRQAPGKGLEWVARIRTKSNNYATHYADSVTDRFIVSRDDSESMTYLQMNNLKTEDTGMYYCVRGGNGIYGRNTMDNWGQGTSVTVSS VL: DIVMTQTAPSVPVSPGESVSISCRSSKSLLHSSGNTYLYWFLQRPGQSPQLLIYRMSNLASGVPDRFSGSGSGTAFTLRISRVEAEDVGVYYCMQHLEYPFTFGGGTKLEIQ")
2.61
>>> recorded_number("101E4 (antibody, V domains shown, Mouse hybridoma monoclonal antibody (SJL mice); detected with anti-mouse IgG) VH: EVQLVESGGGLVQPKGSLKLSCAASGFSFNPYAMNWVRQGPGKGLEWVARIRSKSNNYATYYADSVKDRFTISRDDSENILYLQMNNLKTEDTAMYYCVRDYYGGRSSIGMDYWGHGTSVTVSS VL: DIVMTQAAPSVPVTPGESVSISCRSSKSLLHSNGNTYLYWFLQRPGQSPQLLIYRMSNLASGVPDRFSGSGSGTAFTLRISRVEAEDVGVYYCLQHLEYPFTFGGGTKLELK")
0.27
>>> recorded_number("3O20 (antibody, V domains shown, Mouse hybridoma monoclonal antibody) VH: EVQLVESGGGLVQPKGSLKLSCATSGFSFNAYAMNWVRQAPGKGLEWVGRIRSKSNNYATYYADSVKGRFTISRDDSKTILYLQMNTLKTEDTAIYYCVRGGYHGNSAYFDVWGTGTSVTVSS VL: DIVMTQAAPSVPVTPGESVSISCRSSKSLLHSNGNTYLYWFLQRPGQSPQLLIYRMSNLASGVPDRFSGSGSGTAFTLRISRVEAEDVGVYYCLQHLEYPFTFGSGTKLEIK")
0.45
